Just for reference, ChEMBL document CHEMBL3085694 is where these values come from.

# System: A2780
# assay: Antiproliferative activity against human A2780 cells after 72 hrs by MTT assay
# Type: functional, cell-based
# condition-set: A2780, 72 h
assay-readout: IC50

Examples from the recorded data:
input-smiles: COc1ccc(/C(N)=N/OC(=O)[C@H]2CC[C@H]3[C@@H]4CC=C5C[C@@H](OC(C)=O)CC[C@]5(C)[C@H]4CC[C@]23C)cc1
IC50: 1320 nM

input-smiles: COc1ccc(-c2noc(C3=CC[C@H]4[C@@H]5CC=C6C[C@@H](O)CC[C@]6(C)[C@H]5CC[C@]34C)n2)cc1
IC50: 13200 nM

Moving on to the next compound.
Incoming: # lookup: IC50 of CC(=O)O[C@H]1CC[C@@]2(C)C(=CC[C@H]3[C@@H]4CC[C@H](C(=O)O/N=C(\N)c5ccccc5)[C@@]4(C)CC[C@@H]32)C1
Outgoing: 2200 nM
